Assay: NCI Yeast Anticancer Drug Screen. Data for the sgs1 mgt1 strain (AID 161);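 note: 0% = growth of cultures given vehicle only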
Conditions: S. cerevisiae sgs1 mgt1 strain, at 50.0 µM, active compounds read high
Procedure: Growth inhibition of yeast strains with defined genetic alterations is measured as a screen for potential anti-cancer activity. Selected strains with alterations in DNA damage repair or cell cycle control were exposed to compounds and growth inhibition was measured relative to vehicle treated controls. The strain used in this assay is sgs1 mgt1
Compounds without any hit were thinned out: in the full panel of roughly 79,000, 15% have a hit.
PROPERTY NAME: growth inhibition (%)
Give bare numbers, in %.

Examples with answers:
NC1=C(O)C(=O)C(c2c3ccccc3cc3ccccc23)O1 (stereo not given)    97.8
CN(C)c1ccc(C2(Cl)c3ccccc3N(Cc3ccccc3)c3ccccc32)cc1    96
C=C1C(=O)O[C@H]2C3C(=C(C)CC[C@@H]12)C(=O)[C@@H]1OC31C (stereo not given in full)    46
COc1ccc(NC(=O)/C(=C/c2ccccc2)C(C)=O)cc1    98.5
COc1ccc2nc(N/N=C/c3ccccn3)cc(C)c2c1    99.2

State the recorded growth inhibition for every item in the following list.
1. CCCCCCCCCCCCc1ccc(S(=O)(=O)O)cc1.[Zn+2]
2. CSCS(=O)C[C@H](CO)NC(=O)/C=C/c1c(C)[nH]c(=O)[nH]c1=O (stereo not given in full)
3. CCCCCCCCCCCCCCCCCC[N+]1(C)CCC[N+](C)(CCCCCCCCCCCCCCCCCC)CC1 (stereo not given)
4. COc1ccc(C(=O)Nc2ccc(Cl)cc2)cc1
5. Cc1cc(Cc2ccc(Cl)cc2)ccc1O
6. CC1=C(C(=O)OCCc2ccc([N+](=O)[O-])cc2)C(c2ccccc2[N+](=O)[O-])C(C(=O)OC(C)C)=C(C)N1 (stereo not given)
7. Oc1ccc(Cc2ccccc2)cc1Cl
8. COc1cccc2c1[n+]([O-])c1cccc(O)c1[n+]2[O-]

Response:
[75.3, 83, 47, 5.85, 99.2, 75.7, 42.8, 87.5]

// batch mode: one growth inhibition value per listed entry
1. CCOC(=O)OC(=S)N(C1CCCCC1)C1CCCCC1
2. COc1ccnc2c1C(=O)c1nc3ccccc3c3ccnc-2c13
3. CCOC(=O)C1=C(Nc2ccc(Br)cc2)OC/C1=N\NC(=O)c1ccccc1O
4. O=Cc1nc2c3cccnc3ccc2n1Cc1ccccc1

Response:
50.8
81.5
71.6
35.4

Items follow; give growth inhibition for each.
1. O=C(c1ccc(F)cc1)c1ccc(Cl)cc1Cl
2. O=C1c2ccccc2CN1Cc1ccc(Cl)c(Cl)c1

Response:
1. 93.5
2. 93.1

Working through the 6 compounds below one at a time, give growth inhibition for each.
1. C[N+](C)(C)CC(=O)N/N=C/c1oc(-c2c(O)ccc3ccccc23)c(-c2c(O)ccc3ccccc23)c1[N+](=O)[O-]
2. COC(=O)NC1CCCCCCCCCCC1I (stereo not given)
3. N#CSC#CCCC#CSC#N
4. O=C1c2ccccc2C(=O)c2c1cc(O)c(O)c2O
5. COc1c2c3c(ccnc3c3ccccc13)C(=O)N2C
6. CCN(CC)CCOc1c(I)cc(I)cc1I

Response:
90.2
17.1
94.2
81.5
77.7
96.5

---

experiment: NCI Yeast Anticancer Drug Screen. Data for the mec2-1 strain (AID 157); conditions: S. cerevisiae mec2-1 strain, at 50.0 µM
This is part of a sample that, as a whole, favours compounds with a hit. Of some 79,000 tested, about 15% had one in any assay. Activity calls are given as the source filed them. No stated cut-off is given here; in the data, active means growth inhibition above about 70%; inactive means the rest.
Can you answer with just one of these options? active, inactive

Field: example entries. Status: answers known.
Cc1ccc(NC(=O)Cc2nc3ccccc3s2)c(C)c1    active
CCOC(=O)c1c(N)sc2c1CCCCC2    inactive
Oc1ccc(-c2ccccc2)cc1Cl    active
O=C(O)c1ccc(N=CC2CO2)cc1 (centres undefined)    inactive
COC(=O)C1=C(C)NC(C)=C(C(=O)OC)C1c1ccc(NCc2ccccc2)c([N+](=O)[O-])c1    inactive

Would you kindly look at the next entry?
Prompt: Hello, I am checking results. What call was entered for COc1ccc2c(C)c(N=C=S)c(=O)oc2c1 ?
Response: inactive
